MEASURED METRIC: melting point

O=c1c(CCC(O)c2ccncc2)cc2cccnc2n1-c1cccc([N+](=O)[O-])c1 (stereo not drawn)    235 to 236 °C
CC(=O)NC1(c2ccc(CN3CCN(c4ncccn4)CC3)cc2)CC1    145 to 146 °C
O=S(=O)(Nc1ccccc1)c1cccc(Br)c1    98 to 100 °C

Entry CNc1cc(Cl)cc(NCCOC)c1[N+](=O)[O-] , melting point reported as 93 °C

Entry CS(=O)(=O)N1CC2(CCN(C(=O)Nc3cnc(-c4ccccc4)cn3)CC2)c2ccccc21 , melting point reported as 201 to 203 °C

Entry O=S1(=O)NCN(C2CCCCCC2)c2cc(Cl)c(Cl)cc21 , melting point reported as 191 to 192 °C

Entry COC(=O)c1ccc(Cl)cc1OCC#N , melting point reported as 73 to 76 °C

Entry CCCCCCCCCCCCCCOC(=O)CCCCc1cc(O)c(O)c([N+](=O)[O-])c1 , melting point reported as 46 to 47 °C

Entry COC(=O)c1cc(OCc2ccccc2)cc(C(=O)OC)c1 , melting point reported as 94 to 95 °C

Entry COc1ccn2c(C)c(CCc3ccc4nc(O)oc4c3)nc2c1 , melting point reported as 255 to 257 °C

Entry N#CC(C(N)=S)=C(N)N1CCCC1 , melting point reported as 164 °C

Entry CCCc1nn(C)c2c(=O)[nH]c(-c3ccc(OC)c(OC)c3)nc12 , melting point reported as 210 to 212 °C

Entry CCOC(=O)CC(=O)Cn1nc(CC)c(Oc2cc(Cl)cc(Cl)c2)c1CC , melting point reported as 82 to 84 °C

Entry CS(=O)(=O)N(Cc1ccco1)CC(O)(Cn1cncn1)c1ccc(Cl)cc1Cl (stereo not drawn) , melting point reported as 114 to 115 °C

Entry CC(C)OC(=O)C(=C1SC=CS1)c1ccc(F)cc1 , melting point reported as 86 °C

Entry CCCCc1nn(-c2ccccc2C(F)(F)F)c(=O)[nH]1 , melting point reported as 124 to 126 °C

Entry CN1Cc2c(-c3noc(CN4CC=CC4)n3)ncn2-c2ccccc2C1=O , melting point reported as 215 to 220 °C

Entry CN(Cc1ccc(CCn2cnc3cc(-c4ccc(Cl)cc4)sc3c2=O)cc1)C(=O)OC(C)(C)C , melting point reported as 206 to 209 °C

Entry C=CCN1CC(C)N(C(c2cccnc2)c2cccc(O)c2)CC1C (stereo not drawn) , melting point reported as 115 to 118 °C

Entry Clc1ccc(-c2ccc3nncn3c2)cc1 , melting point reported as 259 to 262 °C

Entry CCOC(=O)C(C#N)C(=O)c1ccc[nH]1 (stereo not drawn) , melting point reported as 138 to 139 °C

Entry Cn1cc(C(=O)NCc2ccc(Cl)cc2)c(=O)c2cc(CN3CCOCC3)sc21 , melting point reported as 230 to 236 °C

Entry CN1C(=O)CC2(CC1=O)c1ccccc1Oc1ccccc12 , melting point reported as 148 to 149 °C

Entry CNCCOc1ccc(C=CC(=O)N2CCc3c([nH]c4ccccc34)C2c2ccc3c(c2)CCO3)cc1 (stereo not drawn) , melting point reported as 145 °C

Entry Cc1ccc(-c2nc3ccccc3o2)cc1F , melting point reported as 121 to 122 °C

Entry CC(CO)CCCC(C)C1CC=C2C3=C(CCC21C)C1(C)CCC(O)C(C)(C)C1CC3 (stereo not drawn) , melting point reported as 180 to 181 °C
